- system_name: panel of 255 wild-type kinases (Homo sapiens)
- test_summary: Kinase panel profiling at 1 µmol/L (MSA or IMAP), percentage inhibition
- Format: biochemical
- measurement_conditions: kinase SIK; 1 µmol/L single concentration; read-out: %-inhibition at 1 µmol/L, SIK
Assign inhibition at 1 µM to each entry below.
Quick note: give the figure in %, leave out the unit.

// query Identify inhibition at 1 µM associated with the compound `COc1ccc(CN2C3CC2CN(c2ccc(-c4cc(OCC(C)(C)O)cn5ncc(C#N)c45)cn2)C3)cn1`
// result 9

// query Supply inhibition at 1 µM value. Item: `CN1CCN(c2ccc(C(=O)Nc3n[nH]c4ccc(Cc5cc(F)cc(F)c5)cc34)c(NC3CCOCC3)c2)CC1`
// result 7.49

// query Provide only the value of recorded inhibition at 1 µM for `Cc1cc(Nc2ncnc3ccc(NC4=NC(C)(C)CO4)cc23)ccc1Oc1ccn2ncnc2c1`
// result 0.717

// query Give inhibition at 1 µM for the following compound: `CCN1C(=O)N(c2c(F)c(OC)cc(OC)c2F)Cc2cnc3[nH]c(CN4CCOCC4)cc3c21`
// result 22

----------
For each entry below, report its inhibition at 1 µM value.
- system_name: panel of 255 wild-type kinases (Homo sapiens, UniProt Q13131)
- Sequence (Q13131 whole entry): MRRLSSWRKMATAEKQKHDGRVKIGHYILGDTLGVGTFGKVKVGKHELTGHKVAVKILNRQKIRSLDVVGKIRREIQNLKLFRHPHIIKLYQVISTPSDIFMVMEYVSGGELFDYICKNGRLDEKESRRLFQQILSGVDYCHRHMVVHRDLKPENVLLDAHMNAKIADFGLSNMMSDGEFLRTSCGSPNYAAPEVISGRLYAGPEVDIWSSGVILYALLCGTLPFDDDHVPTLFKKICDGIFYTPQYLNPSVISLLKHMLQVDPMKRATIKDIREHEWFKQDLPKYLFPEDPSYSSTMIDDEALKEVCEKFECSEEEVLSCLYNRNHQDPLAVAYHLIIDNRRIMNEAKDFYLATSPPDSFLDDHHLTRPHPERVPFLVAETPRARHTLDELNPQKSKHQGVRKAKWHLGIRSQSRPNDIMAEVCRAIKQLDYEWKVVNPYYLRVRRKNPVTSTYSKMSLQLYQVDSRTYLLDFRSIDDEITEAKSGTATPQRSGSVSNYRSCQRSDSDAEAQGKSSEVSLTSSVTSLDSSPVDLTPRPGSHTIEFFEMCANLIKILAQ
- test_summary: Kinase panel profiling at 1 µmol/L (MSA or IMAP), percentage inhibition
- Assay type: biochemical
- measurement_conditions: AMPKα1/β1/γ1 kinase assay; 1 µmol/L single concentration; read-out: %-inhibition AMPKα1/β1/γ1
Write the answer as a number in %, unit excluded.

// query Using the record for `COc1cc2ncnc(Nc3ccc(F)c(Cl)c3)c2cc1NC(=O)/C=C/CN1CCCCC1` , state its measured inhibition at 1 µM.
// result -12

// query Give a short answer stating reported inhibition at 1 µM for `C=CC(=O)N1CCC([C@@H]2CCNc3c(C(N)=O)c(-c4ccc(Oc5ccccc5)cc4)nn32)CC1` .
// result -5.51

// query Consider the compound `CN1CCN(c2ccc(C(=O)Nc3n[nH]c4ccc(Cc5cc(F)cc(F)c5)cc34)c(NC3CCOCC3)c2)CC1` and give its recorded inhibition at 1 µM.
// result 55

// query Indicate the recorded inhibition at 1 µM value for this compound: `CCN1C(=O)N(c2c(F)c(OC)cc(OC)c2F)Cc2cnc3[nH]c(CN4CCOCC4)cc3c21`
// result -6.52

// query Determine its reported inhibition at 1 µM: `C[C@H](Nc1ncnc2nc[nH]c12)c1cc2cccc(Cl)c2c(=O)n1-c1ccccc1`
// result -4

// query Please indicate inhibition at 1 µM recorded for `CCn1c(=O)c(-c2cc(NC(=O)Nc3ccccc3)c(F)cc2Br)cc2cnc(NC)cc21`
// result -10

// query Give recorded inhibition at 1 µM. `Cc1cc(Nc2ncnc3ccc(NC4=NC(C)(C)CO4)cc23)ccc1Oc1ccn2ncnc2c1`
// result -4

// query Entry `COC(=O)N[C@@H](C)CNc1nccc(-c2cn(C(C)C)nc2-c2cc(Cl)cc(NS(C)(=O)=O)c2F)n1` needs its inhibition at 1 µM filled in; supply it.
// result -2.31

// query Quickly give me recorded inhibition at 1 µM for `Cc1nc(NC(=O)N2CCC[C@H]2C(N)=O)sc1-c1ccnc(C(C)(C)C(F)(F)F)c1`
// result -5

// query Return inhibition at 1 µM for the following compound: `Cn1cnc2c(F)c(Nc3ccc(Br)cc3F)c(C(=O)NOCCO)cc21`
// result -7

// query # return recorded inhibition at 1 µM for input `Cn1cc(-c2cc3c(N4CCN(c5ncc([C@@](C)(N)c6ccc(F)cc6)cn5)CC4)ncnn3c2)cn1`
// result 9

// query For `CCc1nc(C(N)=O)c(Nc2ccc(N3CCC(N4CCN(C)CC4)CC3)c(OC)c2)nc1NC1CCOCC1` , write its inhibition at 1 µM.
// result 0.625

// query Give inhibition at 1 µM for the following compound: `FC(F)(F)c1ccc(CNc2ccc(Cc3c[nH]c4ncc(Cl)cc34)cn2)cn1`
// result -11

// query Provide only the value of recorded inhibition at 1 µM for `C[C@H]1Oc2cc(cnc2N)-c2c(nn(C)c2C#N)CN(C)C(=O)c2ccc(F)cc21`
// result -3.58

// query State its inhibition at 1 µM for this compound: `Cn1cnc2c(F)c(Nc3ccc(Br)cc3Cl)c(C(=O)NOCCO)cc21`
// result -2.66

// query Identify measured inhibition at 1 µM corresponding to `CO[C@]1(C(=O)N[C@@H](C)c2ccc(-n3cc(F)cn3)nc2)CC[C@H](c2nc(C)cc(Nc3cc(C)[nH]n3)n2)CC1`
// result 46

// query Please look at this compound and report its inhibition at 1 µM: `O=C(Nc1cnn2ccc(N3CCC[C@@H]3c3cc(F)ccc3F)nc12)N1CC[C@H](O)C1`
// result -5.64

// query Please report inhibition at 1 µM for the following compound: `CCN1CCN(c2ccc(Nc3cc(N(C)C(=O)Nc4c(Cl)c(OC)cc(OC)c4Cl)ncn3)cc2)CC1`
// result -4

// query Supply recorded inhibition at 1 µM for `COc1ccc(CN2C3CC2CN(c2ccc(-c4cc(OCC(C)(C)O)cn5ncc(C#N)c45)cn2)C3)cn1` here.
// result 22

----------
- system_name: panel of 255 wild-type kinases (Homo sapiens, UniProt P19525)
- Sequence (P19525 whole entry): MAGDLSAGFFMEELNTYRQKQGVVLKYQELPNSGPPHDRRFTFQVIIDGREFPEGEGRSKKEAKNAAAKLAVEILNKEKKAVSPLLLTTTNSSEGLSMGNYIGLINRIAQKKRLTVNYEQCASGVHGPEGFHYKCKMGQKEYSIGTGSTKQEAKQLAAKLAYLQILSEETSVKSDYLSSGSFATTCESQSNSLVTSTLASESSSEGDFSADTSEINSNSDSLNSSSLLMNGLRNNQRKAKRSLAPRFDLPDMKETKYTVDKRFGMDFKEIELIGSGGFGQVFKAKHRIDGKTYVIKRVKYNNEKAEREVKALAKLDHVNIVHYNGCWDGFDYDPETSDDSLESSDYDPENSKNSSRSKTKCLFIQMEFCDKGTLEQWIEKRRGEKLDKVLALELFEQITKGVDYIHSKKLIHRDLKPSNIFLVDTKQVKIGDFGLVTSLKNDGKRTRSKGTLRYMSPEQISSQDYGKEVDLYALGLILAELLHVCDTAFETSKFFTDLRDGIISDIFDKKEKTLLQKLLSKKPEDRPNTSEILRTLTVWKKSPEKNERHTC
- test_summary: Kinase panel profiling at 1 µmol/L (MSA or IMAP), percentage inhibition
- Assay type: biochemical
- measurement_conditions: kinase PKR; 1 µmol/L single concentration; read-out: %-inhibition at 1 µmol/L, PKR
I'd appreciate it if you could supply inhibition at 1 µM values for the items below.
Kindly answer with a numeric value in %, unit omitted.

// query Quick one: give measured inhibition at 1 µM for FC(F)(F)c1ccc(CNc2ccc(Cc3c[nH]c4ncc(Cl)cc34)cn2)cn1 [pexidartinib]
// result -10

// query Fill in reported inhibition at 1 µM for this entry: Cc1nc(NC(=O)N2CCC[C@H]2C(N)=O)sc1-c1ccnc(C(C)(C)C(F)(F)F)c1 [alpelisib]
// result -1

// query Tell us which inhibition at 1 µM value is on record for Cn1cnc2c(F)c(Nc3ccc(Br)cc3F)c(C(=O)NOCCO)cc21 [binimetinib]
// result -11

// query State its inhibition at 1 µM: Cn1cc(-c2cc3c(N4CCN(c5ncc([C@@](C)(N)c6ccc(F)cc6)cn5)CC4)ncnn3c2)cn1 [avapritinib]
// result 9

// query For C[C@H](Nc1ncnc2nc[nH]c12)c1cc2cccc(Cl)c2c(=O)n1-c1ccccc1 [duvelisib] , write its inhibition at 1 µM.
// result 2.64

// query Supply recorded inhibition at 1 µM for COc1ccc(CN2C3CC2CN(c2ccc(-c4cc(OCC(C)(C)O)cn5ncc(C#N)c45)cn2)C3)cn1 [selpercatinib] here.
// result 0.94

// query Quickly give me recorded inhibition at 1 µM for C=CC(=O)N1CCC([C@@H]2CCNc3c(C(N)=O)c(-c4ccc(Oc5ccccc5)cc4)nn32)CC1 [zanubrutinib]
// result -1.41

// query Input CCN1CCN(c2ccc(Nc3cc(N(C)C(=O)Nc4c(Cl)c(OC)cc(OC)c4Cl)ncn3)cc2)CC1 [infigratinib] , output reported inhibition at 1 µM.
// result 76

----------
- system_name: panel of 255 wild-type kinases (Homo sapiens, UniProt P11362)
- Sequence (P11362 22-822): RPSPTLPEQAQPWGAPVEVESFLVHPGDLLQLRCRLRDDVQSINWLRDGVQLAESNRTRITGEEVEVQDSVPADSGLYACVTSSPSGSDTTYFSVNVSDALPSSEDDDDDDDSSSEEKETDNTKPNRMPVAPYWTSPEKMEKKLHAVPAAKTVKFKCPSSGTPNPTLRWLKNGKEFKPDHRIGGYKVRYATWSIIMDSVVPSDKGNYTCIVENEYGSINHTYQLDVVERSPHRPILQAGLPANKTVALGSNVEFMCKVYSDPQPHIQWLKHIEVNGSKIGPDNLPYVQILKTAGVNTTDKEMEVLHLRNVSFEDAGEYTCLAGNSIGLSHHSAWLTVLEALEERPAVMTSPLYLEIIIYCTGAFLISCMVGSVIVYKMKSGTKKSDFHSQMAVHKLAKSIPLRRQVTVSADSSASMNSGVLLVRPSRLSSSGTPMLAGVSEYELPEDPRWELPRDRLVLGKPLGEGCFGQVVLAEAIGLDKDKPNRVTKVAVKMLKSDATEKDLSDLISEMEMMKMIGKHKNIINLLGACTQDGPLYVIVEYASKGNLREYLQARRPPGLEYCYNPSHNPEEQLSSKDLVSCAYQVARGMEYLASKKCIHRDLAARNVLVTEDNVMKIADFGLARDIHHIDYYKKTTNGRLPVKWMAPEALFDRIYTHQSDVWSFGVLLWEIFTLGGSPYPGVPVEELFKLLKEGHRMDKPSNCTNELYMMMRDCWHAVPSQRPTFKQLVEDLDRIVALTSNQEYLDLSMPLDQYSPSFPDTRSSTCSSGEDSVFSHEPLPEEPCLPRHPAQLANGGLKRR
- test_summary: Kinase panel profiling at 1 µmol/L (MSA or IMAP), percentage inhibition
- Format: biochemical
- measurement_conditions: kinase FGFR1; 1 µmol/L single concentration; read-out: %-inhibition at 1 µmol/L, FGFR1
Please respond with reported inhibition at 1 µM for every item in the list.
Give the quantity in %, number only.

// query Give the value of inhibition at 1 µM reported for the following: Cc1cc(Nc2ncnc3ccc(NC4=NC(C)(C)CO4)cc23)ccc1Oc1ccn2ncnc2c1 [tucatinib]
// result -3.24

// query For Cn1cnc2c(F)c(Nc3ccc(Br)cc3Cl)c(C(=O)NOCCO)cc21 [selumetinib] , write its inhibition at 1 µM.
// result -1.41

// query Read the entry FC(F)(F)c1ccc(CNc2ccc(Cc3c[nH]c4ncc(Cl)cc34)cn2)cn1 [pexidartinib] and write its reported inhibition at 1 µM.
// result 45

// query Quote inhibition at 1 µM reported for Cn1cc(-c2cc3c(N4CCN(c5ncc([C@@](C)(N)c6ccc(F)cc6)cn5)CC4)ncnn3c2)cn1 [avapritinib] please.
// result 41

// query Hello, please tell me recorded inhibition at 1 µM for this one: CO[C@]1(C(=O)N[C@@H](C)c2ccc(-n3cc(F)cn3)nc2)CC[C@H](c2nc(C)cc(Nc3cc(C)[nH]n3)n2)CC1 [pralsetinib]
// result 96

// query Query inhibition at 1 µM for CCN1CCN(c2ccc(Nc3cc(N(C)C(=O)Nc4c(Cl)c(OC)cc(OC)c4Cl)ncn3)cc2)CC1 [infigratinib]
// result 100

// query Provide one value: measured inhibition at 1 µM of Cc1nc(NC(=O)N2CCC[C@H]2C(N)=O)sc1-c1ccnc(C(C)(C)C(F)(F)F)c1 [alpelisib]
// result 4.29
